test: M. tuberculosis H37Rv growth inhibitors, H37Rv strain (AID 1626); settings: active compounds read high, concentration not given here;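 further: bacteria incubated seven days before Alamar blue readout; 0% = bacteria only wells and 100% = bacteria with antibiotic wells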
The campaign covered roughly 220,000 compounds. About 2,000 (0.91%) were called active. Not shown: some 2% with an inconclusive outcome. A selection follows. Measured potencies and affinities stand elsewhere.
Assignment: determine reported inhibition for the given compounds.
Give your result in % as a bare value.

For reference, reported inhibition for `CC(=O)Nc1ccc(S(=O)(=O)NCCC(=O)Nc2ccc(C)c(Cl)c2)cc1` stands at 1.88

For reference, reported inhibition for `COCCCn1c(-c2ccccc2)nc2ccccc2c1=O` stands at 5.89

For reference, reported inhibition for `Cc1ccccc1-c1nsc(SCC(=O)Nc2ccc3c(c2)OCO3)n1` stands at 16.3

For reference, reported inhibition for `Cc1ccc(S(=O)(=O)NCCC(=O)Nc2ccc(Cl)c(Cl)c2)cc1C` stands at 68.7

For reference, reported inhibition for `CCSc1nnc(-c2ccc(C)cc2)c2ccccc12` stands at 18.7

For reference, reported inhibition for `COc1cccc(NC(=O)N2CCCc3ccccc32)c1` stands at 15

For reference, reported inhibition for CCCOc1ccc(/C(O)=C2/C(=O)C(=O)N(CCCOC)C2c2ccncc2)cc1 (stereo unspecified) stands at -0.21

For reference, reported inhibition for `Cc1ccc(NC(=O)CSCC#N)cc1` stands at -3.07

For reference, reported inhibition for Cc1ccc2nc(NC(=O)C(NS(=O)(=O)c3cccc4nsnc34)C(C)C)sc2c1 (stereo unspecified) stands at 11.5

For reference, reported inhibition for `O=C(NCc1ccco1)c1cc([N+](=O)[O-])ccc1Cl` stands at -6.78

For reference, reported inhibition for `O=C(CSc1nc(-c2ccccc2Cl)ns1)Nc1ccc2c(c1)OCO2` stands at 98.8

====

experiment: M. tuberculosis H37Rv growth inhibitors, H37Rv strain (AID 1626); conditions: active compounds read high, concentration not given here;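 further: bacteria incubated seven days before Alamar blue readout; 0% = bacteria only wells and 100% = bacteria with antibiotic wells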
Out of some 220,000 compounds screened, about 2,000 (0.91%) were called active. Another 2% or so got no clear call; they are omitted. These entries were drawn from the full list. Results with a measured potency or affinity are listed apart.
Assay endpoint: inhibition (%)
Give your result in % as a bare value.

For reference, reported inhibition for `Cc1cccnc1NC(=O)c1ccc([N+](=O)[O-])o1` stands at 2.32

For reference, reported inhibition for CCN(CC)CCCN1C(=O)C(O)=C(C(=O)c2cc3ccccc3o2)C1c1ccccn1 (centres undefined) stands at -1.65

For reference, reported inhibition for `Cc1sc2nc(CN(C(=O)NC3CCCCC3)C3CCCCC3)[nH]c(=O)c2c1C` stands at 3.17

For reference, reported inhibition for `c1ccc(CN2CCC(Nc3nc(-c4cccnc4)nc4ccccc34)CC2)cc1` stands at 11.5

For reference, reported inhibition for OC(CN1CCN(c2ccccc2)CC1)Cn1c2ccccc2c2ccccc21 (centres undefined) stands at 11.9

For reference, reported inhibition for `COC(=O)c1ccccc1NC(=O)NCc1cccnc1` stands at 2.42

For reference, reported inhibition for `Nc1nc2nccc(-c3ccco3)n2n1` stands at -5.94

For reference, reported inhibition for `Cc1cccc(NC(=O)c2ccc([N+](=O)[O-])o2)n1` stands at 3.18

For reference, reported inhibition for `O=C(Nc1ncccn1)c1ccc([N+](=O)[O-])o1` stands at 0.82

For reference, reported inhibition for OC(COc1ccccc1)Cn1c2ccccc2c2ccccc21 (centres undefined) stands at 41.6

For reference, reported inhibition for O=C(c1ccco1)N1CCN(CC(O)Cn2c3ccccc3c3ccccc32)CC1 (centres undefined) stands at 1.44

For reference, reported inhibition for `Cc1ccc(N2C(=O)NC(=O)/C(=C\c3ccc(N4CCOCC4)cc3)C2=O)cc1` stands at -2.37

For reference, reported inhibition for COc1ccc(-c2cc3ccccc3n2CC(O)CN2CCN(CCO)CC2)cc1 (centres undefined) stands at 4.8

For reference, reported inhibition for `O=C(Nc1ccccc1)N(Cc1ccccc1)Cc1ccccc1` stands at 9.83

For reference, reported inhibition for `c1cncc(-c2nc(NCc3ccco3)c3ccccc3n2)c1` stands at -4.8

For reference, reported inhibition for `C=CCn1c(O)c(N=NC(=O)CNC(=O)/C=C/c2ccco2)c2ccccc21` stands at -15.1

For reference, reported inhibition for `O=C1c2ccccc2C(=O)N1c1ccc(Cl)cc1` stands at -5.9

For reference, reported inhibition for Cc1ccc(OCC(O)CN2CCN(CC(O)COc3ccc(C)cc3)CC2)cc1 (centres undefined) stands at 2.23

For reference, reported inhibition for `Fc1ccccc1-c1nc(NCc2ccco2)c2ccccc2n1` stands at 0.67

For reference, reported inhibition for `c1ccc(CN2CCC(Nc3ncnc4sccc34)CC2)cc1` stands at 7.78

For reference, reported inhibition for `O=C(CCC1CCCCC1)NNC(=O)c1cnccn1` stands at 22.5

For reference, reported inhibition for Cc1ccc(N2C(=O)C3C(c4ccccc4)(C2=O)C3(c2ccccc2)c2ccccc2)cc1 (centres undefined) stands at 7.89

For reference, reported inhibition for `Cc1cc(C)nc(NC(=O)c2ccc([N+](=O)[O-])o2)n1` stands at -5.31

For reference, reported inhibition for Cc1ccc(OCC(O)Cn2c3ccccc3c3ccccc32)cc1 (centres undefined) stands at 72.7

====

Assignment: determine reported inhibition for the given molecules.
assay: M. tuberculosis H37Rv growth inhibitors, H37Rv strain (AID 1626); conditions: active compounds read high, concentration not given here;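 further: bacteria incubated seven days before Alamar blue readout; 0% = bacteria only wells and 100% = bacteria with antibiotic wells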
The whole screen tested about 220,000 compounds, of which about 2,000 (0.91%) were called active. Not shown: some 2% with an inconclusive outcome. Not all results are given here. Results with a measured potency or affinity are listed apart.
Give your result in % as a bare value.

For reference, reported inhibition for `O=S(=O)(CCn1cccc1)CCn1cccc1` stands at 8.4

For reference, reported inhibition for `O=C1/C(=C/c2cccnc2)Oc2cc(OS(=O)(=O)c3ccc(Cl)cc3)ccc21` stands at 13.6

For reference, reported inhibition for `CN1CCN(C(=S)c2cn(CCOc3ccccc3)c3ccccc23)CC1` stands at 13

For reference, reported inhibition for `O=C(OCC#CCSc1nnc(-c2cccc3ccccc23)o1)c1cccs1` stands at 60.9

For reference, reported inhibition for `O=C1/C(=C/c2ccncc2)Oc2cc(OS(=O)(=O)c3ccccc3)ccc21` stands at 21.6

For reference, reported inhibition for `COc1ccc(-c2nnc(SCC(=O)c3cccs3)o2)cc1` stands at 12.7

For reference, reported inhibition for `O=C(CSc1nnc(-c2cccs2)o1)c1cccs1` stands at 11.9

For reference, reported inhibition for `CCc1ccc(NS(=O)(=O)c2ccc(OC)c(C)c2)cc1` stands at 16.8

For reference, reported inhibition for `Cc1nc(NC(=O)COC(=O)c2ccc(S(=O)(=O)N3CCc4ccccc4C3)cc2)c(Cl)cc1Cl` stands at -3.47

For reference, reported inhibition for `Cc1cc(C)n(-c2nc(NCCCN(C)C)c3c4c(sc3n2)CCCC4)n1` stands at 17.3

For reference, reported inhibition for `CSc1nc(C)c(Cc2c(F)cccc2Cl)c(=O)[nH]1` stands at -5.44

For reference, reported inhibition for `Cc1[nH]c2ccccc2c1/C=N/n1cnnc1` stands at 3.82

For reference, reported inhibition for `OCC#CCSc1nnc(-c2ccncc2)o1` stands at -1.67

For reference, reported inhibition for `COc1ccc(-c2nnc(SCC#CCO)o2)cc1OC` stands at -8.82

For reference, reported inhibition for `O=C(CO/N=C/c1ccccc1Cl)N1CCCc2ccccc21` stands at 4.05

For reference, reported inhibition for `Cc1cc(C)n(-c2nc(SCCN(C)C)c3c4c(sc3n2)COC(C)(C)C4)n1` stands at 14.6

For reference, reported inhibition for `O=C(CN1C(=O)c2cccc3cccc1c23)Nc1ccccc1C(=O)NCc1ccco1` stands at -8.25

For reference, reported inhibition for `O=C(CSc1nnc(-c2ccncc2)o1)c1cccc([N+](=O)[O-])c1` stands at -6.49

For reference, reported inhibition for `CS(=O)(=O)Oc1ccc2c(c1)O/C(=C\c1cccnc1)C2=O` stands at -6.08

For reference, reported inhibition for `COc1ccc(-n2c(C)nc3sc4c(c3c2=O)CCC4)cc1` stands at -4.02

For reference, reported inhibition for `Cc1cc(C)n(-c2nc(SCC(=O)Nc3nccs3)c3c4c(sc3n2)COC(C)(C)C4)n1` stands at 23.3

For reference, reported inhibition for O=[N+]([O-])c1ccc(C2CCCC/C2=N/OCc2ccccc2F)c([N+](=O)[O-])c1 (stereo not drawn) stands at 0.93

For reference, reported inhibition for `Cc1ccc(S(=O)(=O)N2CCC(C(=O)NNC(=O)c3ccccc3)CC2)cc1` stands at 0.71

====

assay: M. tuberculosis H37Rv growth inhibitors, H37Rv strain (AID 1626); details: active compounds read high, concentration not given here;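 further: bacteria incubated seven days before Alamar blue readout; 0% = bacteria only wells and 100% = bacteria with antibiotic wells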
Out of some 220,000 compounds screened, about 2,000 (0.91%) were called active. About 2% were inconclusive and are not listed. These entries were drawn from the full list. Results with a measured potency or affinity are listed apart.
Assay endpoint: inhibition (%)
Give your result in % as a bare value.

For reference, reported inhibition for `CC(=O)OCCNc1cc(Sc2nc3ccccc3[nH]2)c2nonc2c1[N+](=O)[O-]` stands at -3.19

For reference, reported inhibition for `COc1ccc2[nH]c3c(NCCC4=CCCCC4)ncnc3c2c1` stands at 50.8

For reference, reported inhibition for COC(=O)C1(C(F)(F)F)N=C2Sc3ccccc3N2C(N2CCOCC2)=N1 (stereo not given) stands at -2.56

For reference, reported inhibition for `COc1ccc(/C=C/C(=O)NCC(=O)n2nc(C)cc2C)cc1` stands at -7.73

For reference, reported inhibition for `O=S(=O)(Nc1ccc(-c2cn3ccsc3n2)cc1)c1ccc2c(c1)OCCO2` stands at -7.36
